Origin of values: ChEMBL document CHEMBL6121000

Test: AUC (0 to t) in Sprague-Dawley rat at 20 mg/kg, po measured for 24 hrs by HPLC-ESI-MS analysis
Assay type: ADME, organism-based
Settings: in vivo
VALUE KIND: AUC(0-t) at 24 h (ng·h/mL)

- C[C@H]1[C@H](C)CC[C@]2(C(=O)O)CC[C@]3(C)C(=CC[C@@H]4[C@@]5(C)C[C@@H](O)[C@H](O)C(C)(C)[C@@H]5CC[C@]43C)[C@H]12 [COROSOLIC ACID]: 9200

====

Quick reference for solubility among some molecules
Test: Solubility of compound in PBS
Format: physicochemical
VALUE KIND: solubility

- C[C@H]1[C@H](C)CC[C@]2(C(=O)O)CC[C@]3(C)C(=CC[C@@H]4[C@@]5(C)C[C@@H](O)[C@H](O)C(C)(C)[C@@H]5CC[C@]43C)[C@H]12: 0.55 µM
- C[C@H]1[C@H](C)CC[C@]2(C(=O)NCC(=O)O)CC[C@]3(C)C(=CC[C@@H]4[C@@]5(C)C[C@@H](O)[C@H](O)C(C)(C)[C@@H]5CC[C@]43C)[C@H]12: 3980 µM
